// data source = patent US20110190235A1

# experimental-details: Pharmacokinetic studies in mice (plasma, brain)
# Type: in vivo
# reported-conditions: male, CD-1, mouse; brain, oral, mice, normalized to 25 mg/kg; read-out: Exposure/trapezoid AUC0-inf
observable: AUC(0-inf) (ng·h/mL)

structure-as-smiles	measured-value
O=C(Nc1ccc2c(c1)B(O)OC2)c1ccc(F)cc1C(F)(F)F	13200
CC1(C)OB(O)c2cc(NC(=O)c3ccc(F)cc3C(F)(F)F)ccc21	65500

###

# Test system: bloodstream-form trypanosome T. brucei brucei 427 strain
# experimental-details: Trypanosoma brucei brucei high-throughput in vitro drug sensitivity assay (resazurin)
# Format: cell-based
# reported-conditions: T. b. brucei vs L929
observable: Selectivity Index (L929 IC50 / T. b. brucei IC50)

compound	comparison-operator	measured-value
CC1OB(O)c2cc(NC(=O)c3cccc(F)c3)ccc21 (centres unmarked)	>	207
CC1(C)OB(O)c2cc(NC(=O)c3ccc(F)cc3Br)ccc21	>	18
CC1OB(O)c2cc(NC(=O)c3ccc(F)cc3Cl)ccc21 (centres unmarked)	=	47
O=C(Nc1ccc2c(c1)B(O)OC2C1CCCC1)c1ccc(F)cc1C(F)(F)F (centres unmarked)	>	3
CC(C)CC1OB(O)c2cc(NC(=O)c3ccc(F)cc3C(F)(F)F)ccc21 (centres unmarked)	>	4
Cc1ccc(C(=O)Nc2ccc3c(c2)B(O)OC3C)cc1 (centres unmarked)	=	137
CC1OB(O)c2cc(NC(=O)c3ccccc3Cl)ccc21 (centres unmarked)	=	52
CC1OB(O)c2cc(NC(=O)c3ccccc3F)ccc21 (centres unmarked)	=	84
CC1OB(O)c2cc(NC(=O)c3ccc(F)cc3Br)ccc21 (centres unmarked)	=	29
CC1(C)OB(O)c2cc(NC(=O)c3ccccc3C(F)(F)F)ccc21	>	94
CC1(C)OB(O)c2cc(NC(=O)c3ccc(F)cc3F)ccc21	>	4
O=C(Nc1ccc2c(c1)B(O)OC2C1CCCC1)c1ccccc1Cl (centres unmarked)	=	2
CC1OB(O)c2cc(NC(=O)c3ccccc3Br)ccc21 (centres unmarked)	=	39
CC1OB(O)c2cc(NC(=O)c3ccccc3I)ccc21 (centres unmarked)	=	36
